Molecular target: T1, hPRLR.mmh (soluble monomeric human PRLR) (Homo sapiens, UniProt P16471)
T1 construct: soluble monomeric (hPRLR.mmh); mmh (myc-myc-hexahistidine)
T1 sequence (P16471 with tags, fused parts or gaps): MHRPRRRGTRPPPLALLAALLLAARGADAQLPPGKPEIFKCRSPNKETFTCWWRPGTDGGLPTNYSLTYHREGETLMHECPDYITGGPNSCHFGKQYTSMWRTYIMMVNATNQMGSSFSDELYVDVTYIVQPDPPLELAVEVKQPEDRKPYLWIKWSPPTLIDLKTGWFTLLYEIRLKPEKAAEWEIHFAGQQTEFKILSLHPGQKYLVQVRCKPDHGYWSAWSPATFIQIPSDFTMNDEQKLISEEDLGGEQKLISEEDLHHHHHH
Test: Surface plasmon resonance (Biacore T200), mAb-capture format
Format: binding
Settings: 37° C., antibody-capture format, analyte hPRLR.mmh

| molecule | Kd [nM] |
| --- | --- |
| H1H6958N2: human IgG1 Fc form of H2M6958N2; anti-PRLR, receptor blocking; HCVR/LCVR SEQ ID NOs 290/298 (antibody, V domains shown, human IgG1 Fc) VH: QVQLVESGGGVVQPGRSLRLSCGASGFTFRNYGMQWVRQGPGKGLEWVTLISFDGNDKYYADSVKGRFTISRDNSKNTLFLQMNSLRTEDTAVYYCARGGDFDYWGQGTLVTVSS VL: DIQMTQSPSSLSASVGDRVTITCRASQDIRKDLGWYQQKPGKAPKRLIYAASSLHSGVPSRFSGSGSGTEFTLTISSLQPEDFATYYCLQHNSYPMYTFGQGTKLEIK | 3.16 |
| H1H6765P: anti-PRLR antibody, human IgG1 Fc; HCVR/LCVR SEQ ID NOs 18/26 (antibody, V domains shown, human IgG1 Fc) VH: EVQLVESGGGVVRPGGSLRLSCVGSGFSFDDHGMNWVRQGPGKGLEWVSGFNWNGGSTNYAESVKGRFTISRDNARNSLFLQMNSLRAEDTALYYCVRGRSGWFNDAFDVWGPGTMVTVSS VL: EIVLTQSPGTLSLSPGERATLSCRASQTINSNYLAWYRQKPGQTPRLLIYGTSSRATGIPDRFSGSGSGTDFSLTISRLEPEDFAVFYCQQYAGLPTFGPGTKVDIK | 0.292 |
| H1H6795P: anti-PRLR antibody, human IgG1 Fc; HCVR/LCVR SEQ ID NOs 162/170 (antibody, V domains shown, human IgG1 Fc) VH: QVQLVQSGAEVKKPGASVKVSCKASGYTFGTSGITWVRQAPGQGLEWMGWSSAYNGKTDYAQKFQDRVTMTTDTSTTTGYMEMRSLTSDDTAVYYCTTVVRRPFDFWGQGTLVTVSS VL: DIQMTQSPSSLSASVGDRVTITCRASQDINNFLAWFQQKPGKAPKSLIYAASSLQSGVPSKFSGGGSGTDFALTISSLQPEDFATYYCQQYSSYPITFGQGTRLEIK | 3.81 |
| H1H6801P: anti-PRLR antibody, human IgG1 Fc; HCVR/LCVR SEQ ID NOs 210/218 (antibody, V domains shown, human IgG1 Fc) VH: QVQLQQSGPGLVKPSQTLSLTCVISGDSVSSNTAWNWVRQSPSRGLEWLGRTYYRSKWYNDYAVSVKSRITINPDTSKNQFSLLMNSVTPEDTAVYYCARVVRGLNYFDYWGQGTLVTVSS VL: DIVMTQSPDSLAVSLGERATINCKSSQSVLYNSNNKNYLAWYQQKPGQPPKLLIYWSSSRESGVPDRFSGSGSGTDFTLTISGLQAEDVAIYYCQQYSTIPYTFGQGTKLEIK | 4.63 |
